Molecular target: ERβ (Homo sapiens)
Sequence (Q92731 whole entry): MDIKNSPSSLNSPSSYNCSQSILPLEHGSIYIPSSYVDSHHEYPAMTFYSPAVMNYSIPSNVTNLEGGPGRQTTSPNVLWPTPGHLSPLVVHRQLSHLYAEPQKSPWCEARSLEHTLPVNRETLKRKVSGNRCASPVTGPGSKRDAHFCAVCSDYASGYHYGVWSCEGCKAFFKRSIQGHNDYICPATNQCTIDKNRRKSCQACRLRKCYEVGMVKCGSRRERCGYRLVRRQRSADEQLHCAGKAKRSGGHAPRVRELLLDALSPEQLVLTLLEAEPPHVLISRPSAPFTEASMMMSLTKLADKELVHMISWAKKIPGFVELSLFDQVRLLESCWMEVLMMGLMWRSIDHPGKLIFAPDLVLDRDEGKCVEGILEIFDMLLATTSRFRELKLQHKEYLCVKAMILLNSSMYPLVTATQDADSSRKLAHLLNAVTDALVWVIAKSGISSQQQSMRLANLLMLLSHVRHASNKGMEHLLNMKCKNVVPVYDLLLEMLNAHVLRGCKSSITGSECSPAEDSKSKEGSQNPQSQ
Experiment: Time resolved fluorescence (TRF) binding of europium-streptavidin peptide conjugates in the presence of modulators
Design: purchased PanVera Corporation, Madison, WI
Conditions: peptide probe α/βV, ERβ
MEASURED ENDPOINT: pEC50
// scale note: pEC50 = -log10(conc_M); give the bare number

Ask: What does the data say about its pEC50? Entry: "CCN(CC)CCOc1ccc(C(=C(Cl)c2ccccc2)c2ccccc2)cc1"
Reply: 6.82

###

Biological target: ERα (Homo sapiens, UniProt P03372)
Sequence (P03372 1-595): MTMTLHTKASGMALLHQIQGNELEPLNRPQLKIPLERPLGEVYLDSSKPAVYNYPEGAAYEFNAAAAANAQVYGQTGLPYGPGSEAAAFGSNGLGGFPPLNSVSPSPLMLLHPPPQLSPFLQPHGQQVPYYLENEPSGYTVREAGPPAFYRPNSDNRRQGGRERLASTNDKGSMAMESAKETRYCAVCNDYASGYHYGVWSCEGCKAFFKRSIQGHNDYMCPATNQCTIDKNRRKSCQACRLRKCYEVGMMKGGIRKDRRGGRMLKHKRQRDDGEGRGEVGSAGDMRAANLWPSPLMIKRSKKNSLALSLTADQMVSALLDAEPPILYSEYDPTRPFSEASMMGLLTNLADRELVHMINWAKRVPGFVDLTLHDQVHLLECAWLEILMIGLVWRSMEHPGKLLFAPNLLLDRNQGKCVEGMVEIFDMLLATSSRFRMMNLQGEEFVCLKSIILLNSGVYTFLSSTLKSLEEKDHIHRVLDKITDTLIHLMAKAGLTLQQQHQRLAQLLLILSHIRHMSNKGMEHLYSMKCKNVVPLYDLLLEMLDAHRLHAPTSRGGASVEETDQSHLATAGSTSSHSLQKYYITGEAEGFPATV
Assay: Phage ELISA / fingerprint on ER immobilized on biotinylated ERE (Examples 2.3-2.5)
Format: binding
Parameters: purchased PanVera Corporation, Madison, WI; key: semiquantitative scale of 0 to 7+; 1+: semiquantitative scale of 0 to 7+; 2+: semiquantitative scale of 0 to 7+; 3+: semiquantitative scale of 0 to 7+; 4+: semiquantitative scale of 0 to 7+; 5+: semiquantitative scale of 0 to 7+; 6+: semiquantitative scale of 0 to 7+; semiquantitative scale of 0 to 7+
Conditions: ERα and estradiol (1 µM)
Measured binding activity, ERα and estradiol by item

SSGSSAGRLMMLLQDGVSR [Peptide 13E-β] = 4+
SRNECIGPWCLTISR [Peptide 13t-β] = 2+
SRECVGGWCLAELSR [Peptide 18b-β] = 2+

Ask: Give its binding activity, ERα and estradiol value. Item: SREGLLMRLLIGDSR [Peptide 14E-β]
Reply: 7+

Ask: Need binding activity, ERα and estradiol of SSISTYHMGEWFYAMLSSR [Peptide 22t-β] , thanks.
Reply: 4+

Ask: # query: binding activity, ERα and estradiol of entry SSTRLMCWLGSADTSHCSR [Peptide 28E-β]
Reply: 3+

Ask: Which binding activity, ERα and estradiol is listed for SRPYCLGDVWCLDSR [Peptide 2t-β] ?
Reply: 2+

Ask: # get_value(readout='binding activity, ERα and estradiol', item= SSGPWLMHYLGGGSR [Peptide 7b-β] )
Reply: 4+

Ask: Fill blank: measured binding activity, ERα and estradiol of the sequence SRWWLDDHELLLYSSR [Peptide 26E-β] is ____.
Reply: 4+

Ask: Please give the measured binding activity, ERα and estradiol for this sequence: SSHCHTRLCSLLTSR [Peptide 15E-β]
Reply: 6+

Ask: Suppose we examine the sequence SRPEGSSWLLHYLSR [Peptide 24E-β] ; what binding activity, ERα and estradiol value has been reported?
Reply: 6+

Ask: I'd like to know its binding activity, ERα and estradiol. The sequence in question is SSTTWRCPEWYCGSR [Peptide 30E-β]
Reply: 3+

Ask: Can you share its binding activity, ERα and estradiol? I mean this sequence: SSPTGHRLLESLLLNSNSR [Peptide 8E-β]
Reply: 6+

Source of measurements: patent EP1073891B1
